These measurements were taken from paper PMC6735331.

Molecular target: α-glucosidase (Saccharomyces cerevisiae, UniProt P53341)
Construct: purchased Sigma Aldrich
Sequence (P53341 whole entry): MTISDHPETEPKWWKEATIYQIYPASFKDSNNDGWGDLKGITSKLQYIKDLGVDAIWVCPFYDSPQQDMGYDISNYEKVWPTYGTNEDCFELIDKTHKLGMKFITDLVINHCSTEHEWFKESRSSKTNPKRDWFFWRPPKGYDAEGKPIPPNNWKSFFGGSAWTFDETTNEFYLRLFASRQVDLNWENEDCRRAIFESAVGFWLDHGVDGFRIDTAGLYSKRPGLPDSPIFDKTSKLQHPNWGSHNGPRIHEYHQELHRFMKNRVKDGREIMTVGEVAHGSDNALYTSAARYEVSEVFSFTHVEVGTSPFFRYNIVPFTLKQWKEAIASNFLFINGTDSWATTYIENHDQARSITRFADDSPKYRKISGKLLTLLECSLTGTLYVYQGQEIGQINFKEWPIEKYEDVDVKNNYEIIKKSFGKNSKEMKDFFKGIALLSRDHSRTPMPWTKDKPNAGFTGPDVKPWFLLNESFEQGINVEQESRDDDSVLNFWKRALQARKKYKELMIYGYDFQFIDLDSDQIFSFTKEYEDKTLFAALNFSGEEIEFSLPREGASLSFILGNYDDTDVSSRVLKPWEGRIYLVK
Assay: Binding affinity measurement by fluorescence quenching (Stern–Volmer)
Details: fluorescence quenching; read-out: KA (converted)
Reported Kd values follow for various compounds
Parameter: Kd

>>> endpoint_result("CC1(C)Oc2c(O)cc(O)c3c2C1Cc1c-3oc2cc(O)cc(O)c2c1=O (centres unmarked)")
"1750 nM"
>>> endpoint_result("CC(C)=CCCC1(C)C=Cc2c(cc(O)c3c(=O)c(CC=C(C)C)c(-c4cc(O)c(O)cc4O)oc23)O1 (single isomer, unassigned; (-))")
"1230 nM"
>>> endpoint_result("C=C(C)[C@H]1Cc2c(oc3c4c(cc(O)c3c2=O)OC(C)(C)C=C4)-c2c(O)cc(O)c(O)c21")
"1320 nM"
>>> endpoint_result("CC1(C)C=Cc2c(cc(O)c3c(=O)c4c(oc23)-c2c(O)cc(O)c3c2C(C4)C(C)(C)O3)O1 (centres unmarked)")
"1270 nM"
>>> endpoint_result("C=C(C)C1Cc2c(oc3cc(OC)cc(O)c3c2=O)-c2c(O)cc(O)c(O)c21 (centres unmarked)")
"1270 nM"
